Where these numbers come from: ChEMBL document CHEMBL1150477

Molecular target: Type-1 angiotensin II receptor (Oryctolagus cuniculus, UniProt P34976)
Sequence (P34976 whole entry): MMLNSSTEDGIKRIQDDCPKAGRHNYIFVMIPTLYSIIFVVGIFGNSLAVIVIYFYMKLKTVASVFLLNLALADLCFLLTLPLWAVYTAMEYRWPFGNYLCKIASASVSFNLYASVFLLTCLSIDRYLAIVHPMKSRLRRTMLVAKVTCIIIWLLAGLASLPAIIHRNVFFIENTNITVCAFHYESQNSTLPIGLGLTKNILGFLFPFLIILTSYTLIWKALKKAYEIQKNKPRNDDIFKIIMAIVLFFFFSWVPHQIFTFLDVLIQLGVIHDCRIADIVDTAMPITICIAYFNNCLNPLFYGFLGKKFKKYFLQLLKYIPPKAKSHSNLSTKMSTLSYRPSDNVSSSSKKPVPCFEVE
reported_metric: IC50

CCCCCN(C(=O)c1ccccc1)c1ccc2nc(CCC)n(Cc3ccc(-c4ccccc4-c4nn[nH]n4)cc3)c(=O)c2c1
1.5 nM
CCc1ccc(C(=O)NS(=O)(=O)c2ccccc2-c2ccc(Cn3c(CC)nc4ccc(NC(=O)N(C)C(C)C)cc4c3=O)c(F)c2)cc1
0.54 nM
CCc1nc2ccc(NC(=O)N(C)C(C)C)cc2c(=O)n1Cc1ccc(-c2ccccc2S(=O)(=O)NC(=O)OCCC(C)C)cc1F
0.62 nM
